Origin of measurements: paper PMC7531004

Tested on: P388 mouse leukemia cells
Conditions: 92 h
Where a SMILES comes first, the peptide text is derived from it. [ ]: non-standard residue; d: D form. The star is where a group is joined. NHCH2CH2OH = OCCN*; For = O=C*
Measure Name: cell viability/%

CC(C)C[C@@H](NC(=O)[C@H](C)NC(=O)CNC(=O)[C@@H](NC=O)C(C)C)C(=O)N[C@@H](C)C(=O)N[C@@H](C(=O)N[C@H](C(=O)N[C@H](CC(C)C)C(=O)N[C@@H](Cc1c[nH]c2ccccc12)C(=O)N[C@H](CC(C)C)C(=O)N[C@@H](Cc1c[nH]c2ccccc12)C(=O)N[C@@H](C(=O)N[C@@H](Cc1c[nH]c2ccccc12)C(=O)N[C@H](CC(C)C)C(=O)N[C@@H](Cc1c[nH]c2ccccc12)C(=O)NCCO)C(C)C)C(C)C)[C@H](C)O [compound 9676] (For-VGA[dL]A[dT]V[dL]W[dL]W[dV]W[dL]W-NHCH2CH2OH); 100.0%

**Q:** Provide the documented cell viability/% with P388 mouse leukemia cells as the system for CC(C)C[C@@H](NC(=O)[C@H](C)NC(=O)[C@H](NC(=O)[C@H](C)NC(=O)CNC(=O)[C@@H](NC=O)C(C)C)[C@H](C)O)C(=O)N[C@H](C(=O)N[C@@H](C(=O)N[C@@H](Cc1c[nH]c2ccccc12)C(=O)N[C@@H](C(=O)N[C@@H](Cc1c[nH]c2ccccc12)C(=O)N[C@H](CC(C)C)C(=O)N[C@@H](Cc1c[nH]c2ccccc12)C(=O)N[C@@H](C(=O)N[C@@H](Cc1c[nH]c2ccccc12)C(=O)NCCO)C(C)C)C(C)C)C(C)C)C(C)C [compound 8687] (For-VGA[dT]A[dL]V[dV]W[dV]W[dL]W[dV]W-NHCH2CH2OH)
**A:** 66.9%

**Q:** Provide the documented cell viability/% with P388 mouse leukemia cells as the system for CC(C)C[C@@H](NC(=O)[C@H](Cc1c[nH]c2ccccc12)NC(=O)[C@H](NC(=O)[C@@H](NC(=O)[C@H](NC(=O)[C@H](C)NC(=O)[C@H](NC(=O)[C@H](C)NC(=O)CNC(=O)[C@@H](NC=O)C(C)C)C(C)C)C(C)C)C(C)C)C(C)C)C(=O)N[C@@H](Cc1c[nH]c2ccccc12)C(=O)N[C@@H](C(=O)N[C@@H](Cc1c[nH]c2ccccc12)C(=O)N[C@@H](C(=O)N[C@@H](Cc1c[nH]c2ccccc12)C(=O)NCCO)C(C)C)C(C)C [compound 4830] (For-VGA[dV]A[dV]V[dV]W[dL]W[dV]W[dV]W-NHCH2CH2OH)
**A:** 89.5%

**Q:** Provide the documented cell viability/% with P388 mouse leukemia cells as the system for CNC(=O)C[C@@H](NC(=O)[C@@H](NC(=O)[C@H](NC(=O)[C@H](C)NC(=O)[C@@H](CC(C)C)NC(=O)[C@H](C)NC(=O)CNC(=O)[C@@H](NC=O)C(C)C)C(C)C)C(C)C)C(=O)N[C@@H](Cc1c[nH]c2ccccc12)C(=O)N[C@@H](C(=O)N[C@@H](Cc1c[nH]c2ccccc12)C(=O)N[C@H](CC(C)C)C(=O)N[C@@H](Cc1c[nH]c2ccccc12)C(=O)N[C@@H](C(=O)N[C@@H](Cc1c[nH]c2ccccc12)C(=O)NCCO)C(C)C)C(C)C [compound 5778] (For-VGA[dL]A[dV]V[dD](NHMe)W[dV]W[dL]W[dV]W-NHCH2CH2OH)
**A:** 77.8%

###

Each record here notes measured cell viability/%.
System: P388 mouse leukemia cells
Details: 92 h
Where a SMILES comes first, the peptide text is derived from it. [ ]: non-standard residue; d: D form. The star is where a group is joined. NHCH2CH2OH = OCCN*; For = O=C*
Express it in %; write the number only.

CC(C)C[C@@H](NC(=O)[C@H](C)NC(=O)[C@H](NC(=O)[C@H](C)NC(=O)CNC(=O)[C@@H](NC=O)C(C)C)C(C)C)C(=O)N[C@H](C(=O)N[C@@H](C(=O)N[C@@H](Cc1c[nH]c2ccccc12)C(=O)N[C@H](CC(C)C)C(=O)N[C@@H](Cc1c[nH]c2ccccc12)C(=O)N[C@H](CC(C)C)C(=O)N[C@@H](Cc1c[nH]c2ccccc12)C(=O)N[C@@H](C(=O)N[C@@H](Cc1c[nH]c2ccccc12)C(=O)NCCO)C(C)C)[C@H](C)O)C(C)C [compound 8984] (For-VGA[dV]A[dL]V[dT]W[dL]W[dL]W[dV]W-NHCH2CH2OH); 57.9

Okay, next one:
**Q:** Given the entry CC(C)C[C@@H](NC(=O)[C@H](C)NC(=O)[C@H](NC(=O)[C@H](C)NC(=O)CNC(=O)[C@@H](NC=O)C(C)C)[C@H](C)O)C(=O)N[C@H](C(=O)N[C@H](CC(C)C)C(=O)N[C@@H](Cc1c[nH]c2ccccc12)C(=O)N[C@H](CC(C)C)C(=O)N[C@@H](Cc1c[nH]c2ccccc12)C(=O)N[C@@H](C(=O)N[C@@H](Cc1c[nH]c2ccccc12)C(=O)N[C@@H](C(=O)N[C@@H](Cc1c[nH]c2ccccc12)C(=O)NCCO)C(C)C)C(C)C)C(C)C [compound 569] (For-VGA[dT]A[dL]V[dL]W[dL]W[dV]W[dV]W-NHCH2CH2OH) , report its measured cell viability/%.
**A:** 100.0

###

Each record here notes measured viability.
Conditions: cell viability/%
Protocol: Each type of assay must be simplified and miniaturized to assess the activities of the library peptides in a 96-well format for the high-throughput screening. […] Mammalian cytotoxicity assay of bead-derived peptides . P388 cells were obtained from Institute of […] for 92 h, the numbers of viable cells were determined by […] at 37 °C. The absorbance of each well at 415 nm was measured using a Benchmark microplate reader (Bio-Rad). The cytotoxicities were evaluated as cell viability (%). […]
Where a SMILES comes first, the peptide text is derived from it. [ ]: non-standard residue; d: D form. The star is where a group is joined. NHCH2CH2OH = OCCN*; For = O=C*
Express it in %; write the number only.

CC(C)C[C@@H](NC(=O)[C@H](Cc1c[nH]c2ccccc12)NC(=O)[C@@H](CC(C)C)NC(=O)[C@@H](NC(=O)[C@H](NC(=O)[C@H](C)NC(=O)[C@H](NC(=O)[C@H](C)NC(=O)CNC(=O)[C@@H](NC=O)C(C)C)C(C)C)C(C)C)C(C)C)C(=O)N[C@@H](Cc1c[nH]c2ccccc12)C(=O)N[C@H](CC(C)C)C(=O)N[C@@H](Cc1c[nH]c2ccccc12)C(=O)N[C@@H](C(=O)N[C@@H](Cc1c[nH]c2ccccc12)C(=O)NCCO)C(C)C [compound 511] (For-VGA[dV]A[dV]V[dL]W[dL]W[dL]W[dV]W-NHCH2CH2OH); 1.8

Okay, next one:
**Q:** Given the entry CNC(=O)C[C@@H](NC(=O)[C@@H](NC(=O)[C@@H](CC(C)C)NC(=O)[C@H](C)NC(=O)[C@H](NC(=O)[C@H](C)NC(=O)CNC(=O)[C@@H](NC=O)C(C)C)C(C)C)C(C)C)C(=O)N[C@@H](Cc1c[nH]c2ccccc12)C(=O)N[C@H](CC(C)C)C(=O)N[C@@H](Cc1c[nH]c2ccccc12)C(=O)N[C@@H](C(=O)N[C@@H](Cc1c[nH]c2ccccc12)C(=O)N[C@H](CC(C)C)C(=O)N[C@@H](Cc1c[nH]c2ccccc12)C(=O)NCCO)C(C)C [compound 6541] (For-VGA[dV]A[dL]V[dD](NHMe)W[dL]W[dV]W[dL]W-NHCH2CH2OH) , report its measured viability.
**A:** 100

###

Tested on: P388 mouse leukemia cells
Conditions: 92 h
Where a SMILES comes first, the peptide text is derived from it. [ ]: non-standard residue; d: D form. The star is where a group is joined. NHCH2CH2OH = OCCN*; For = O=C*
Each record here notes measured cell viability/%.
Express it in %; write the number only.

CC(C)C[C@@H](NC(=O)[C@H](C)NC(=O)CNC(=O)[C@@H](NC=O)C(C)C)C(=O)N[C@@H](C)C(=O)N[C@@H](C(=O)N[C@H](C(=O)N[C@@H](C(=O)N[C@@H](Cc1c[nH]c2ccccc12)C(=O)N[C@@H](C(=O)N[C@@H](Cc1c[nH]c2ccccc12)C(=O)N[C@H](CC(C)C)C(=O)N[C@@H](Cc1c[nH]c2ccccc12)C(=O)N[C@H](CC(C)C)C(=O)N[C@@H](Cc1c[nH]c2ccccc12)C(=O)NCCO)C(C)C)C(C)C)C(C)C)C(C)C [compound 2082] (For-VGA[dL]A[dV]V[dV]W[dV]W[dL]W[dL]W-NHCH2CH2OH); 100.0

**Q:** Given the entry CC(C)C[C@@H](NC(=O)[C@H](C)NC(=O)CNC(=O)[C@@H](NC=O)C(C)C)C(=O)N[C@@H](C)C(=O)N[C@H](CC(C)C)C(=O)N[C@H](C(=O)N[C@@H](C(=O)N[C@@H](Cc1c[nH]c2ccccc12)C(=O)N[C@H](CC(C)C)C(=O)N[C@@H](Cc1c[nH]c2ccccc12)C(=O)N[C@@H](C(=O)N[C@@H](Cc1c[nH]c2ccccc12)C(=O)N[C@H](CC(C)C)C(=O)N[C@@H](Cc1c[nH]c2ccccc12)C(=O)NCCO)[C@H](C)O)[C@H](C)O)C(C)C [compound 3780] (For-VGA[dL]A[dL]V[dT]W[dL]W[dT]W[dL]W-NHCH2CH2OH) , report its measured cell viability/%.
**A:** 100.0
